Test system: PC49
Experiment: qHTS profiling for inhibitors of Plasmodium falciparum proliferation (AID 504749); note: nearly all actives have a fitted effect of over 60% in size
Conditions: P. falciparum in erythrocytes, SYBR Green DNA, 72 h; series mostly up to 28.7 µM
Records with an inconclusive call do not appear. Calls of active or inactive are those of the source. Calls come from the whole dose curve; as a rule, active = well fitted inhibition curve with a large enough effect; inconclusive = small, poorly fitted or top-dose-only effect; inactive = flat fitted curve, though single readings scatter.
Would you mind answering with one of these outcomes? yes (1) = active, no (0) = inactive

The examples below pair each entry with its known result.
1) CC(/C=C1\SC(=S)N(CC(=O)O)C1=O)=C\c1ccccc1 = no (0)
2) CN1C[C@H](C(=O)N[C@]2(C)O[C@@]3(O)C4CCCN4C(=O)[C@H](Cc4ccccc4)N3C2=O)C[C@@H]2c3cccc4[nH]cc(c34)C[C@H]21 (some centres not stated) = yes (1)
3) COc1ccc(CCNC[C@@H](O)c2ccc(O)cc2)cc1OC = no (0)
4) CC(C)(C)[C@]1(O)CCN2CC3c4ccccc4CCc4cccc(c43)[C@@H]2C1 (some centres not stated) = no (0)
5) C[C@@H]1[C@H](O)[C@@H](C)/C=C/C=C/C=C/C=C/C=C/C=C/C=C/[C@H](O[C@@H]2O[C@H](C)[C@@H](O)[C@H](N)[C@@H]2O)C[C@@H]2O[C@](O)(C[C@@H](O)C[C@@H](O)[C@H](O)CC[C@@H](O)C[C@@H](O)CC(=O)O[C@H]1C)C[C@H](O)[C@H]2C(=O)O = no (0)
6) N[C@H](Cc1ccc(O)c(O)c1)C(=O)O = no (0)

Prompt line: In this assay, the call recorded for CO[C@H]1/C=C/O[C@@]2(C)Oc3c(C)c(O)c4c(O)c(c(/C=N\N5CCN(C6CCCC6)CC5)c(O)c4c3C2=O)NC(=O)/C(C)=C\C=C\[C@H](C)[C@H](O)[C@@H](C)[C@@H](O)[C@@H](C)[C@H](OC(C)=O)[C@@H]1C was what?
Response line: yes (1)

* * *

Assay: qHTS drug screen for cell cycle checkpoint inhibitors in PARPi-resistant BRCA-mutant ovarian cancer cell lines. (AID 1963452)
Conditions: PEO1/OlaR viability, CellTiter-Glo luminescence, 96 h; stronger effect = lower value
measurementType: Z-AUC
Answers are plain numbers.

1. CC(=O)N1CCN(c2ccc(NC(=O)Cc3cnc(-c4ccnc(F)c4)c(C)c3)nc2)CC1 = 1.31

Please state Z-AUC for every compound in the list that follows.
1. OCCOc1ccc(/C(=C(/CCCl)c2ccccc2)c2ccccc2)cc1
2. CCc1cc2c(c(OCC(F)(F)F)c(C(=O)NC3CCN(C(=O)CO)CC3)n2C)c(=O)n1CC(=O)c1ccccc1

Response line:
[-0.111, -1.12]

Please state Z-AUC for every compound in the list that follows.
1. CCN(CC)C(=O)Cc1csc(NS(=O)(=O)c2cccc(Cl)c2C)n1
2. CN1CCN(c2ccc(Nc3ncc4cc(C#N)c(=O)n(C5CCCC5)c4n3)cc2)CC1
3. CCC(=O)N1CCOc2c(cc(-c3cc(OC)cc(OC)c3)cc2C(=O)N[C@H]2CCCN(C)C2)C1
4. O=C1NC(=O)[C@@H](c2cn3c4c(cccc24)CCC3)[C@@H]1c1c[nH]c2ccccc12

Response line:
1: 0.874; 2: -0.464; 3: 1.12; 4: 0.925

Please state Z-AUC for every compound in the list that follows.
1. Cc1cc(-c2cnn3c(NCC4CC(C)(O)C4)cc(Oc4cccnc4)nc23)ccc1C(=O)NC1CC1 (centres undefined)
2. N[C@@H]1CN(c2c(F)cc3c(=O)c(C(=O)O)cn([C@@H]4C[C@@H]4F)c3c2Cl)CC12CC2

Response line:
[-0.227, 0.751]

* * *

Test: qHTS drug screen for cell cycle checkpoint inhibitors in PARPi-resistant BRCA-mutant ovarian cancer cell lines. (AID 1963452)
Details: PEO1/OlaR viability, CellTiter-Glo luminescence, 96 h; measured here: PEO4 Z-AUC; stronger effect = lower value
Flag rule - Z-AUC less than -0.0006 flags Satisfied; the remaining entries get Not satisfied.

Prompt line: Item O=C1Cc2cc(C(=O)NC3C[C@H]4CC[C@@H](C3)N4S(=O)(=O)CC3CCN(CCCC(F)(F)F)CC3)c(Cl)cc2N1 (stereo not given in full) : Z-AUC beneath -0.0006, strictly?
Response line: Satisfied

Prompt line: Item CC1(C)OC2=C(C(=O)c3ccccc3C2=O)[C@H](NCc2ccccc2)[C@@H]1O : Z-AUC beneath -0.0006, strictly?
Response line: Not satisfied

Prompt line: Item Cc1ccc(NC(=O)NCc2ccc3c(c2)CN(C2CCC(=O)NC2=O)C3=O)cc1Cl (stereo not given) : Z-AUC beneath -0.0006, strictly?
Response line: Satisfied

Prompt line: Item O=C(/C=C/c1ccc(CN(CCO)CCc2c[nH]c3ccccc23)cc1)NO : Z-AUC beneath -0.0006, strictly?
Response line: Satisfied

Prompt line: Item OCCOc1ccc(/C(=C(/CCCl)c2ccccc2)c2ccccc2)cc1 : Z-AUC beneath -0.0006, strictly?
Response line: Not satisfied

* * *

Assay: qHTS Assay for Lipid Storage Modulators (AID 1519); note: % is set by controls: 0 for no effect and ±100 for the full control effect
Conditions: Drosophila S3 cells, BODIPY lipid droplet/cell ratio, laser cytometry; at 57.5 µM (top of the series); cells loaded with oleic acid
Results filed as inconclusive are left out.
Exercise: for every item that follows, state its recorded activity change, negative = inhibition.
Numbers only, in %.

Worked set:
1) O=C(c1cc(C(F)(F)F)cc(C(F)(F)F)c1)N1CCC2(CCCN(Cc3nccs3)C2)CC1 = -19.9
2) O=c1c(-c2ccccc2)nc2cnc(Nc3ccccc3)nc2n1Cc1cccs1 = -3.34
3) COc1ccccc1CN1CC[C@@]2(CCCN(C(=O)c3cccn3C)C2)C1 = 3.67
4) CCNc1ncc2nc(-c3cn(C)c4ccccc34)c(=O)n(-c3ccc(OC)cc3)c2n1 = 5.38
5) Cc1noc(C)c1C(=O)N1CCC[C@@]2(CCN(c3ccccc3)C2)C1 = -2.45

Please state activity change, negative = inhibition for every compound in the list that follows.
1. Cc1ccccc1-c1cncnc1N(C)Cc1ccco1
2. COc1cccc(Cn2c(=O)c(-c3ccc(F)cc3)nc3cnc(N(C)C)nc32)c1
3. FC(F)(F)c1cc(CN2CCCC3(CCNCC3)C2)cc(C(F)(F)F)c1

Response line:
8.25
7.91
0.357

Please state activity change, negative = inhibition for every compound in the list that follows.
1. FC(F)(F)c1ccccc1-c1nccc(NCc2cccs2)n1
2. COc1ccc(-c2nc3cnc(N4CCOCC4)nc3n(C)c2=O)cc1

Response line:
[5.22, 1.23]

* * *

Exercise: for every item that follows, state its recorded activity, negative = inhibition.
Experiment: Stat Signaling Pathway (AID 446);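 note: ME-180 cervical cancer cells given 40 pM IL-6 alongside compound; SIE-controlled beta-lactamase reporter measured as 460/530 nm FRET emission ratio; % is set by controls: 0 for no effect and ±100 for the full control effect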
Details: ME-180 (cervical carcinoma) SIE beta-lactamase reporter, IL-6 stimulated, 5 h; at 7.69 µM (top of the series) unless noted
Results filed as inconclusive are left out.
Answers are plain numbers, in %.

Worked set:
1) Cc1noc(C)c1C(=O)N1CCC2(CC1)CN(C(=O)Nc1cccc(F)c1)C2 = 0.457
2) COCC(=O)N1CCC2(CC1)CN(c1ccccn1)C2 = 9.91
3) O=C(c1csnn1)N1CCC[C@@]2(CCN(c3ccccn3)C2)C1 = 8.47
4) COCCn1c(=O)c(CCc2ccccc2)nc2cnc(OC)nc21 = -4.28
5) CNc1cc(-c2ccccc2C(F)(F)F)ncn1 = 7.97

Please state activity, negative = inhibition for every compound in the list that follows.
1. O=c1c(-c2cc(F)cc(F)c2)nc2cnc(N3CCOCC3)nc2n1Cc1cccs1
2. O=S(=O)(c1ccccc1)N1CCC[C@@]2(CCN(c3ccncc3)C2)C1
3. Cc1noc(C)c1-c1ccc2ncnc(N(C)C)c2c1
4. O=C(c1cc(C(F)(F)F)cc(C(F)(F)F)c1)N1CCC2(CC1)CCN(c1ccccn1)CC2
5. COc1ccc(Oc2ncc3nc(C)c(=O)n(C[C@H]4CCCO4)c3n2)cc1
6. O=c1c(-c2ccc(F)cc2)nc2cnc(Oc3ccccc3)nc2n1Cc1cccs1

Response line:
6.69
0.894
-14.9
-1.33
-14.8
1.3

Please state activity, negative = inhibition for every compound in the list that follows.
1. CN(C)c1ncc2nc(-c3ccc(F)cc3)c(=O)n(Cc3cccs3)c2n1
2. COc1ccc(-n2c(=O)cnc3cnc(N(C)C)nc32)cc1
3. COc1ncc2nc(-c3cc(F)cc(F)c3)c(=O)n(CCC#N)c2n1
4. O=C(Nc1cccc(F)c1)N1CCCC2(CCN(S(=O)(=O)c3ccccc3)CC2)C1
5. Cn1cccc1C(=O)N1CCC2(CCCN(c3ccccc3)C2)CC1

Response line:
-1.13
-7.93
-7.47
-7.25
-6.3

Please state activity, negative = inhibition for every compound in the list that follows.
1. Cc1cnc(CNc2ccnc(-c3ccccc3CN(C)C)n2)cn1
2. COCCn1c(=O)c(-c2ccccc2)nc2cnc(Oc3ccc(OC)cc3)nc21
3. COCCn1c(=O)c(-c2ccc(Cl)cc2)nc2cnc(OCc3ccccc3)nc21
4. COc1cccc(Cn2c(=O)c(-c3ccc(F)cc3)nc3cnc(N(C)C)nc32)c1
5. COc1ccc(Oc2ncc3ncc(=O)n(C[C@H]4CCCO4)c3n2)cc1
6. CS(=O)(=O)N1CCC2(CC1)CN(Cc1nccs1)C2
7. COC(=O)N1CCC2(CCN(C(=O)Nc3ccccc3)CC2)CC1

Response line:
[12.3, -10.2, -2.08, -3.48, -26.1, 6.32, 0.0402]

Please state activity, negative = inhibition for every compound in the list that follows.
1. COCC(=O)N1CCC2(CCCN(C(=O)Nc3cccc(F)c3)C2)CC1
2. O=C(c1ccco1)N1CCC2(CC1)CN(c1ccc(-c3ccccc3)cc1)C2
3. CS(=O)(=O)N1CCC2(CCCN(C(=O)Nc3cccc(C#N)c3)C2)CC1
4. COC(=O)N1CCC2(CC1)CN(C(c1ccccc1)c1ccccc1)C2
5. COc1ccc(NC(=O)N2CC[C@@]3(CCCN(C(=O)c4csnn4)C3)C2)cc1
6. CN1CCN(c2ncnc3ccc(-c4ccc5c(c4)OCO5)cc23)CC1

Response line:
1. -4.68
2. -21.1
3. 1.15
4. 5.28
5. 7.84
6. 6.89

Please state activity, negative = inhibition for every compound in the list that follows.
1. Cc1noc(C)c1-c1cc(N2CCN(C)CC2)ncn1
2. COC(=O)N1CCC2(CC1)CN(C(=O)Nc1cccc(C#N)c1)C2
3. CS(=O)(=O)N1CCC2(CCN(Cc3ccncc3)CC2)CC1
4. O=C(c1csnn1)N1CCC2(CCCN(c3ccccc3)C2)CC1

Response line:
7.9
-1.88
10.3
-8.69

Please state activity, negative = inhibition for every compound in the list that follows.
1. COCCNc1ncnc2ccc(-c3cccnc3)cc12
2. CC(C)CN1CCC2(CC1)CCN(C(=O)c1csnn1)CC2
3. O=C(c1cnccn1)N1CCC2(CC1)CN(c1ccncc1)C2
4. CN1CCN(c2ncc3nc(CCc4ccccc4)c(=O)n(C4CC4)c3n2)CC1
5. COc1ncc2ncc(=O)n(C)c2n1
6. COCC(=O)N1CCC[C@@]2(CCN(C(=O)Nc3cccc(C#N)c3)C2)C1
7. COc1ccc(-c2nc3cnc(N4CCOCC4)nc3n(-c3ccccc3)c2=O)cc1

Response line:
[18, -16.4, 2.09, -7.8, -12.1, 2.49, 13.1]

Please state activity, negative = inhibition for every compound in the list that follows.
1. COc1ccccc1CN1CC[C@@]2(CCCN(C(=O)c3cccn3C)C2)C1
2. Cn1cccc1C(=O)N1CCC2(CCN(C(=O)Nc3cccc(F)c3)CC2)CC1
3. CN(C)Cc1ccccc1-c1cc(N(C)Cc2ccco2)ncn1
4. Cn1cc(-c2nc3cncnc3n(Cc3ccc(F)cc3)c2=O)c2ccccc21
5. COc1cccc(Nc2ncc3nc(-c4ccc(Cl)cc4)c(=O)n(C4CC4)c3n2)c1

Response line:
1. -10.5
2. -3.96
3. -3.48
4. -7.96
5. -10.8

Data credit: PubChem BioAssay (NCATS)
